All figures here come from the supplement of paper PMC9732359.

# experiment-notes: protein stability index of a GFP-peptide fusion (yeast GPS) (PSI 1-4); higher = more stable; sorted into four equal gates, so the index is relative within each strain
# condition: ubr1∆
# protein stability index listing for each entry below

{"macromolecule-sequence": "DQLLTDLIETSFTCFAQ [NUT1]", "protein stability index": 2.91}
{"macromolecule-sequence": "HTKSDERSELLRLFNAP [SNF2]", "protein stability index": 3.04}
{"macromolecule-sequence": "ERNAFLSDYEVLKFLTD [RPC17]", "protein stability index": 3.05}

###

# experiment-notes: protein stability index of a GFP-peptide fusion (yeast GPS) (PSI 1-4); higher = more stable; sorted into four equal gates, so the index is relative within each strain
# condition: ubr1∆
property-measured: protein stability index

{"macromolecule-sequence": "SMILEAISTDKINPFGF [RRI2]", "property-measured": "protein stability index", "reported": 2.92}
{"macromolecule-sequence": "EQNHLDNNYNTAETNNK [YDL088C/ASM4]", "property-measured": "protein stability index", "reported": 2.93}
{"macromolecule-sequence": "SSSSLECATCHGNLASC [RPO31]", "property-measured": "protein stability index", "reported": 2.95}
{"macromolecule-sequence": "LAEEVVDNIVNKYQYSL [SRP68]", "property-measured": "protein stability index", "reported": 2.92}
{"macromolecule-sequence": "TFDGIRMSSEEVNSLLL [GRR1]", "property-measured": "protein stability index", "reported": 2.92}
{"macromolecule-sequence": "SSLNGTNAKIPQFDSTQ [SSN3]", "property-measured": "protein stability index", "reported": 2.97}

###

# protein stability index listing for each entry below
# experiment-notes: protein stability index of a GFP-peptide fusion (yeast GPS) (PSI 1-4); higher = more stable; sorted into four equal gates, so the index is relative within each strain
# condition: pdr5∆
property-measured: protein stability index

{"macromolecule-sequence": "QNSLLTNTHPNFLSKIR [SNF2]", "reported": 2.92}
{"macromolecule-sequence": "NLRLLNSIDSTSRIELE [ECM29]", "reported": 3.08}
{"macromolecule-sequence": "LEMSTEDFVKLAPARVR [RPS15]", "reported": 3.05}

###

# experiment-notes: protein stability index of a GFP-peptide fusion (yeast GPS) (PSI 1-4); higher = more stable; sorted into four equal gates, so the index is relative within each strain
# condition: san1∆

{"macromolecule-sequence": "PDLNIDRNNSTNQIFQS [SIN4]", "protein stability index": 2.7}
{"macromolecule-sequence": "FEASCMEGQKLDDPVLN [YJR042W/NUP85]", "protein stability index": 1.45}
{"macromolecule-sequence": "IQPTAKVVYIQRRSWRQ [DIS3]", "protein stability index": 1.31}
{"macromolecule-sequence": "QRQKTYVERFETQLKVV [SMC1]", "protein stability index": 1.23}
{"macromolecule-sequence": "EITSVLSNLHESNKRYR [SNF12]", "protein stability index": 2.94}
{"macromolecule-sequence": "RDHKSYSQSPPRSPGRS [SMC4]", "protein stability index": 3.01}
{"macromolecule-sequence": "QEESFSLNLGIGIVEIA [SRB8]", "protein stability index": 2.08}
{"macromolecule-sequence": "NGGVGVDVELITSINVE [FAS2]", "protein stability index": 3.11}
{"macromolecule-sequence": "TPKITAAEKSFKPPKNK [SEC65]", "protein stability index": 3.04}
{"macromolecule-sequence": "KRYTSEGTRNRFSYSPP [YMR129W/POM152]", "protein stability index": 2.92}
{"macromolecule-sequence": "NKTDAQAPTTGFSFGSQ [YJL041W/NSP1]", "protein stability index": 3.28}
{"macromolecule-sequence": "GLHKFVKGDLLQEAIDF [PRE10]", "protein stability index": 3.09}
{"macromolecule-sequence": "YFLRRQYILQIVSFIVN [YJL039C/NUP192]", "protein stability index": 1.31}
{"macromolecule-sequence": "IAKLVAVLNVSPVYDVD [NUT1]", "protein stability index": 1.7}
{"macromolecule-sequence": "SLQSSSQTQLENANAAN [MED2]", "protein stability index": 2.64}
{"macromolecule-sequence": "LTIDDLGVASFHGTSTK [FAS2]", "protein stability index": 3.03}
{"macromolecule-sequence": "EQRKQKLSKILPRYQEL [SMC3]", "protein stability index": 3.01}
{"macromolecule-sequence": "ENRFQDTLLLLPTDGGL [POP4]", "protein stability index": 1.77}
{"macromolecule-sequence": "FIDSICKLFDKISFNLR [SRB8]", "protein stability index": 1.96}
{"macromolecule-sequence": "MKPEVEQELAHILLTEL [FAS2]", "protein stability index": 2.75}
{"macromolecule-sequence": "QLIKVAVHNGGRKHVAA [RPL9A]", "protein stability index": 2.66}
{"macromolecule-sequence": "AIDHLKAELEKQKSWVP [YIL149C/MLP2]", "protein stability index": 2.98}
{"macromolecule-sequence": "HLRVRVHPFHVLRINKM [RPL10]", "protein stability index": 1.2}

###

# experiment-notes: protein stability index of a GFP-peptide fusion (yeast GPS) (PSI 1-4); higher = more stable; sorted into four equal gates, so the index is relative within each strain
# condition: ubr1∆
Would you please tag the item MET when its protein stability index is 3 or above, and NOT MET when it is below?

{"macromolecule-sequence": "RLQGIKLLDNIQEYQLC [COR1]", "category": "NOT MET"}
{"macromolecule-sequence": "KASVTIVFDNTDKSNSP [SMC2]", "category": "MET"}
{"macromolecule-sequence": "SLTRDFEQCCKEKKELQ [YIL149C/MLP2]", "category": "MET"}
{"macromolecule-sequence": "DANGVSLFELIVPIFQL [YJL039C/NUP192]", "category": "NOT MET"}
{"macromolecule-sequence": "CSKSIPKDKAIKRMAIR [RPS26A]", "category": "NOT MET"}
{"macromolecule-sequence": "FLFHAISGREGLVDTAV [RPO31]", "category": "NOT MET"}
{"macromolecule-sequence": "GATYRGKLVESEDSMNV [SMD3]", "category": "MET"}
{"macromolecule-sequence": "INSTKNGKDNNNESNKN [MED2]", "category": "MET"}
{"macromolecule-sequence": "INGWELTKAQKYLDQVL [RPL17B]", "category": "NOT MET"}
{"macromolecule-sequence": "FFLGYMINRLLLCALDR [RPB2]", "category": "NOT MET"}
{"macromolecule-sequence": "EGNTVLEKGNNPSVKQG [SWP82]", "category": "NOT MET"}
{"macromolecule-sequence": "EITDAYCFAKNDLFFNN [YMR129W/POM152]", "category": "NOT MET"}
{"macromolecule-sequence": "QSRLMSTSYHLNSTLES [MED6]", "category": "NOT MET"}
{"macromolecule-sequence": "RYLAVTLQDIGFYQIKK [YMR129W/POM152]", "category": "NOT MET"}
{"macromolecule-sequence": "LLQKMLNLLNYQELFIQ [YML103C/NUP188]", "category": "NOT MET"}
{"macromolecule-sequence": "VQLLLHINSILLARVIQ [SNF11]", "category": "NOT MET"}
{"macromolecule-sequence": "KKINRRNETSVDEEDEN [YCG1]", "category": "MET"}
{"macromolecule-sequence": "SLSVVAGKWSSKYLIKQ [ECM29]", "category": "NOT MET"}
{"macromolecule-sequence": "NPKYDTSNASMNTTLGS [YAR002W/NUP60]", "category": "MET"}
{"macromolecule-sequence": "MKDKEINIQKYNNNTIR [CSI1]", "category": "NOT MET"}
{"macromolecule-sequence": "VRRGNRKRPVPKGATYG [RPL15A]", "category": "MET"}
{"macromolecule-sequence": "SMKMELLKKELLTIEPK [SMC2]", "category": "NOT MET"}
{"macromolecule-sequence": "ERAAQKLRLDQLVIQQG [ISW2]", "category": "NOT MET"}
{"macromolecule-sequence": "SLQDSIIKQENFNSVND [SSN2]", "category": "NOT MET"}
{"macromolecule-sequence": "PDFLSKYSAITSSIFQE [NUT1]", "category": "NOT MET"}
{"macromolecule-sequence": "AARVDIGQIIFSVRTKD [RPL10]", "category": "NOT MET"}
{"macromolecule-sequence": "AFDKHMNLVLNECIEER [SMB1]", "category": "NOT MET"}
{"macromolecule-sequence": "ISSSTQCLRFLKETVIP [POP6]", "category": "NOT MET"}
{"macromolecule-sequence": "ILKTLERSICALGEFAD [YML031W/NDC1]", "category": "NOT MET"}
{"macromolecule-sequence": "PHLIIQNHNSKSTDNSA [IRR1]", "category": "NOT MET"}
{"macromolecule-sequence": "AMVEKYAPDVVRSLENL [RRP42]", "category": "MET"}
{"macromolecule-sequence": "ESGKVFIGRLPIMLRSK [RPB2]", "category": "NOT MET"}
{"macromolecule-sequence": "GPSVESYELRNTTTYKS [SNF5]", "category": "NOT MET"}
{"macromolecule-sequence": "PYYKYLCEEYLVNNGQS [RPN7]", "category": "NOT MET"}
{"macromolecule-sequence": "LKLENLHVVSKSSIEKD [SIN4]", "category": "MET"}
{"macromolecule-sequence": "SDEERDDEDDEHNPTIV [AAR2]", "category": "MET"}
{"macromolecule-sequence": "GQSAGKLAAIVEIIDQK [RPL14A]", "category": "MET"}
{"macromolecule-sequence": "NANIFSSVKCFGPIKVE [FAS1]", "category": "NOT MET"}
{"macromolecule-sequence": "DSNESDDDVTPSTKVAS [YLR335W/NUP2]", "category": "MET"}
{"macromolecule-sequence": "VQDLGSAISVTNVEDPL [SIR2]", "category": "NOT MET"}
{"macromolecule-sequence": "FIDHHAAIRQPTRYVLI [POP1]", "category": "NOT MET"}
{"macromolecule-sequence": "RELLKSQVEDFTRIFLP [SIR3]", "category": "MET"}
{"macromolecule-sequence": "KRELLKRYRLKESQLPR [RPB5]", "category": "MET"}
{"macromolecule-sequence": "YIYSQETKSWINESAEN [MED1]", "category": "NOT MET"}
